- target: GlcNAc(b1-3)Gal(b1-4)GlcNAc(b1-3)[GlcNAc(b1-3)Gal(b1-4)GlcNAc(b1-3)]GalNAc
- experiment: glycan array binding signal (z-score within array); higher = stronger binding
- cond: glycan notation: IUPAC condensed, linker removed
This is one part of a sample in which the strongest signals are shown more often than they occur.
observed_property: glycan array binding signal (z-score)
Provide a numeric answer; units are not to be included.

Solved entries:
binder	glycan array binding signal (z-score)
Epa12 (Candida glabrata) (protein) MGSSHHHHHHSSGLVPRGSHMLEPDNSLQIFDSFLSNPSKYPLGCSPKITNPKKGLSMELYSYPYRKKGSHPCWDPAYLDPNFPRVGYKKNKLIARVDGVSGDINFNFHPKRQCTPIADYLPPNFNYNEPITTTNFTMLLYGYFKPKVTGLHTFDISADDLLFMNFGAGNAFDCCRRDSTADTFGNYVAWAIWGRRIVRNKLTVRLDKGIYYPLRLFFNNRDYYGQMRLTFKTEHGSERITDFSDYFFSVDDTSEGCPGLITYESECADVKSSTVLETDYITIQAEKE	-0.348
Apa (Mycobacterium tuberculosis), Rv1860 (protein) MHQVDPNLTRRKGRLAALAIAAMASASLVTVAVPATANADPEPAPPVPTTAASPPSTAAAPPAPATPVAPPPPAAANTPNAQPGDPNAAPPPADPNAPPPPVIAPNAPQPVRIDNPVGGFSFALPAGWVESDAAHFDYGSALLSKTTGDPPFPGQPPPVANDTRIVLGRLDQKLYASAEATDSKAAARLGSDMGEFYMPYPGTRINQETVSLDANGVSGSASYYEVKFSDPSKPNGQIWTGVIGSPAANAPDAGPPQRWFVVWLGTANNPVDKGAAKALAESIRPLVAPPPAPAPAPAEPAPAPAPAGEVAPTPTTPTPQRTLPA	0.26
AidA (Burkholderia cenocepacia) (protein) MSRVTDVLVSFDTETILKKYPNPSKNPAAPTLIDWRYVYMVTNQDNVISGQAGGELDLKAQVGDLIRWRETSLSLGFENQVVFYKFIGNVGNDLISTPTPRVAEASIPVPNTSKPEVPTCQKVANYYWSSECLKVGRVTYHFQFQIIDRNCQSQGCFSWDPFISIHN	-0.928
RBMC2 (Vibrio cholerae) (protein) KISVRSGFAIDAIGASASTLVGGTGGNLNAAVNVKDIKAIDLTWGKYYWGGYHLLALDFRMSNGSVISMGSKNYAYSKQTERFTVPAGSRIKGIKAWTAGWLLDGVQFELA	-0.222
Epa7 (Candida glabrata), Q6DTM6_CANGB (protein) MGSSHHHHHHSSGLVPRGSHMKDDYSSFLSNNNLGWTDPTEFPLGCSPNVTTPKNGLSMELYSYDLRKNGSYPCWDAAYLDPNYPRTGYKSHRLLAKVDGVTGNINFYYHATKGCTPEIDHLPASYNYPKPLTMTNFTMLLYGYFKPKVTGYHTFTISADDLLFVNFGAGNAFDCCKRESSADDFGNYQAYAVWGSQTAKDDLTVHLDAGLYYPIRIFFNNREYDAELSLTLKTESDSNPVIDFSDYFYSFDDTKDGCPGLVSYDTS	-0.225

Next, consider the following binder.
Qu. Can you share its glycan array binding signal (z-score)? I mean this binder: SfaEH (Escherichia coli), Q1RDG5 (protein) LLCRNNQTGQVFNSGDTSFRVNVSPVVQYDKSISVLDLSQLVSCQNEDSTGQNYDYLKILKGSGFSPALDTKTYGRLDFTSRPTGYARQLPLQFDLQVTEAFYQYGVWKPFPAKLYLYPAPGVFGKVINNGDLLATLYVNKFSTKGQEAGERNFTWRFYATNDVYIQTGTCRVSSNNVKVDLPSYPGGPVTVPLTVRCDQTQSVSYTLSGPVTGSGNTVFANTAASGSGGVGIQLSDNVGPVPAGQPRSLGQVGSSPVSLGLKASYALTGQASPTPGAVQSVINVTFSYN
Ans. 0.026

Data provenance is the supplement of paper PMC8728848.
